Data provenance is patent US20250388553A1.

- TGT: PI3Kγ (p110γ) Recombinant Human Protein (Homo sapiens (Human), UniProt P48736)
- Sequence (P48736 whole entry): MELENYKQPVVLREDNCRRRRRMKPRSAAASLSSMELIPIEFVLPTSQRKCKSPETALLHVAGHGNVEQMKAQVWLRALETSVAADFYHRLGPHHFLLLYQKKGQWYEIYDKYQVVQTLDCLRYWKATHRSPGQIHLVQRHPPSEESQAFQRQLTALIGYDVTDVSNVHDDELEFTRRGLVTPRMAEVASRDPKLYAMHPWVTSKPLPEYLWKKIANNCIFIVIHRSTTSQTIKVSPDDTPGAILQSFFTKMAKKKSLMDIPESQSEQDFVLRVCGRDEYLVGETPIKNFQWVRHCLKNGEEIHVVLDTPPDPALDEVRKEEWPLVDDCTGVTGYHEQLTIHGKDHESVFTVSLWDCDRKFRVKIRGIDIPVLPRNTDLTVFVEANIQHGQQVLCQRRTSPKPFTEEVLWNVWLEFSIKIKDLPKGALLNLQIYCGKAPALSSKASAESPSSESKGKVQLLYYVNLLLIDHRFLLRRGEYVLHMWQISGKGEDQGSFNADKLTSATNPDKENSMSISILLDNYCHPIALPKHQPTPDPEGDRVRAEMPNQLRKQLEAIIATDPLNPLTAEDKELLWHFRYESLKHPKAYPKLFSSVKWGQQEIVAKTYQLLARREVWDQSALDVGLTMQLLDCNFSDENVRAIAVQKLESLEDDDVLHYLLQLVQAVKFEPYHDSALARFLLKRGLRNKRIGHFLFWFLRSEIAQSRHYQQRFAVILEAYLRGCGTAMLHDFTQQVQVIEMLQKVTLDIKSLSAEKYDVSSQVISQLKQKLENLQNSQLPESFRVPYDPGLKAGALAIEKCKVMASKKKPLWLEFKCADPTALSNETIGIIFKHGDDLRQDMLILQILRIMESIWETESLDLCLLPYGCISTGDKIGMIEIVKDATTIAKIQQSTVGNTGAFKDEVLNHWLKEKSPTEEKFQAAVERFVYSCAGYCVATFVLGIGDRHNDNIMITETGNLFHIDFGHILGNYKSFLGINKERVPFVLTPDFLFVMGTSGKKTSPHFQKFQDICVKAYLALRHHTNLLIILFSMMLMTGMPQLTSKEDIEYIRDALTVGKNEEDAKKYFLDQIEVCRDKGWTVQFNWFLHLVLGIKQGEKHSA
- TEST_DETAILS: PI3K-γ scintillation proximity assay
- Format: biochemical
- CONDITION_SUMMARY: Table A3; scintillation proximity assay, recombinant human p110γ
Where a name gives a salt, the structure may show the parent alone.
Each entry below carries its reported IC50.

{"COMPOUND": "Cc1ccc(C(O)(C(N)=O)C(F)(F)F)cc1-c1cnc(N)c(-c2cnc(C3CC3)s2)n1 (stereo not shown) [Example 84, trifluoroacetate]", "IC50": "< 100 nM"}
{"COMPOUND": "Cc1ncc(-c2nc(-c3cc(C(O)(C(N)=O)C(F)F)ccc3C)cnc2N)o1 (stereo not shown)", "IC50": "< 100 nM"}
{"COMPOUND": "CNC(=O)C(O)(c1ccc(C)c(-c2cnc(N)c(-c3cnn(C)c3)n2)c1)C(F)(F)F (stereo not shown)", "IC50": "< 100 nM"}
{"COMPOUND": "Cc1ccc(C(O)(C(N)=O)C(F)(F)F)cc1-c1cnc(N)c(-c2cccc(C(C)C)c2)n1 (stereo not shown)", "IC50": "< 100 nM"}
